src = the supplement of paper PMC9233669

Test system: biotinyl-Trp-oxazolone
Test: self-aminoacylation, catalytic enhancement (BWO) (fold over background); higher = more active; k-Seq, kA / k0A0; sequences stand for … in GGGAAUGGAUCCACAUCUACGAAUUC…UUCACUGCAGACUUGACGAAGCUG
This sample holds only a part of the variants without activity.
property: self-aminoacylation

(Q) Query (sequence): ACGCUUGCUAAUAGUCGCAAG [Fam3.1 aminoacylation ribozyme variant] ; field requested: self-aminoacylation
(A) 2.88

(Q) Query (sequence): AUCACACUGGUCAUCGAGUGA [Fam2.1 aminoacylation ribozyme variant] ; field requested: self-aminoacylation
(A) 8.95

(Q) Query (sequence): CCACACUUAAAGCAAUCUGUC [Fam1B.1 aminoacylation ribozyme variant] ; field requested: self-aminoacylation
(A) 0.349

(Q) Query (sequence): AGUACCCUGGUCAUCGAUUGA [Fam2.1 aminoacylation ribozyme variant] ; field requested: self-aminoacylation
(A) 1.58

* * *

Test system: biotinyl-Met-oxazolone
Test: self-aminoacylation, catalytic enhancement (BMO) (fold over background); higher = more active; k-Seq, kA / k0A0; sequences stand for … in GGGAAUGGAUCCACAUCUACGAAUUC…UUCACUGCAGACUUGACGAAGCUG
This sample holds only a part of the variants without activity.
Please go through the items and note down their self-aminoacylation.
Simply state the number, no unit and no words.

(Q) Query (sequence): AAAUUUGCUAAUAGUCGCAGG [Fam3.1 aminoacylation ribozyme variant] ; field requested: self-aminoacylation
(A) 2.11

(Q) Query (sequence): AUUCUCCUAGGUCAUCGCGUG [Fam2.2 aminoacylation ribozyme variant] ; field requested: self-aminoacylation
(A) 20.9

(Q) Query (sequence): AUUAUCCUGUUCAUCGAGUGA [Fam2.1 aminoacylation ribozyme variant] ; field requested: self-aminoacylation
(A) 5.98

(Q) Query (sequence): AUUCAGCUAGGUCGUCGGGUG [Fam2.2 aminoacylation ribozyme variant] ; field requested: self-aminoacylation
(A) 3.24

(Q) Query (sequence): CUACAGCAAACAAUCGGUCUG [Fam1A.1 aminoacylation ribozyme variant] ; field requested: self-aminoacylation
(A) 0.482

(Q) Query (sequence): AUUACACUGGUCAUCCAGUGA [Fam2.1 aminoacylation ribozyme variant] ; field requested: self-aminoacylation
(A) 3.47

(Q) Query (sequence): AUUACCCUGGUCAUCGCGGGA [Fam2.1 aminoacylation ribozyme variant] ; field requested: self-aminoacylation
(A) 5.35

(Q) Query (sequence): AUUACCCUGGUGAUCCAGUGA [Fam2.1 aminoacylation ribozyme variant] ; field requested: self-aminoacylation
(A) 9.84

(Q) Query (sequence): GAGUUUGCUAAUAGUCGUAAG [Fam3.1 aminoacylation ribozyme variant] ; field requested: self-aminoacylation
(A) 1.4

(Q) Query (sequence): UUUACCCUGGUGAUCGAGUGA [Fam2.1 aminoacylation ribozyme variant] ; field requested: self-aminoacylation
(A) 6.47

* * *

Tested on: biotinyl-Ile-oxazolone
Assay: self-aminoacylation, catalytic enhancement (BIO) (fold over background); higher = more active; k-Seq, kA / k0A0; sequences stand for … in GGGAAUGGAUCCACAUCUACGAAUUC…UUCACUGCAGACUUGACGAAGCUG
Variants at the floor of the assay were thinned out.
property: self-aminoacylation
Simply state the number, no unit and no words.

(Q) Query (sequence): AUUACCCGGGUCAUCGGGUGA [Fam2.1 aminoacylation ribozyme variant] ; field requested: self-aminoacylation
(A) 6.62

(Q) Query (sequence): AAGUAUGUUAAUAGUCGCAAG [Fam3.1 aminoacylation ribozyme variant] ; field requested: self-aminoacylation
(A) 1.44

(Q) Query (sequence): AUUCAACUAGGUCCUCGGGUG [Fam2.2 aminoacylation ribozyme variant] ; field requested: self-aminoacylation
(A) 3.44

(Q) Query (sequence): AAGUUUGCUGAUACUCGCAAG [Fam3.1 aminoacylation ribozyme variant] ; field requested: self-aminoacylation
(A) 1.11

(Q) Query (sequence): CUAAACUUCAAGCAAUCGGUC [Fam1B.1 aminoacylation ribozyme variant] ; field requested: self-aminoacylation
(A) 0.956

(Q) Query (sequence): AAGUUUGAUAAUAGCCGCAAG [Fam3.1 aminoacylation ribozyme variant] ; field requested: self-aminoacylation
(A) 1.29

(Q) Query (sequence): CUACUUAAAACAAUCGGUCGG [Fam1A.1 aminoacylation ribozyme variant] ; field requested: self-aminoacylation
(A) 0.878

(Q) Query (sequence): AUUGCCCUGGUCAUCGAGUGA [Fam2.1 aminoacylation ribozyme variant] ; field requested: self-aminoacylation
(A) 20.6

(Q) Query (sequence): CCACACUUCAAGCAUUCGGUG [Fam1B.1 aminoacylation ribozyme variant] ; field requested: self-aminoacylation
(A) 5.54
